// JAK3 (Homo sapiens (Human)) IC50 records
Quick note: give the figure in nM, leave out the unit.

COc1cc(Nc2cc(O[C@H]3CC[C@@H](NC[C@@H](O)C(F)(F)F)CC3)cc3c2ncn3C)nn1C ... 2540
Cn1cnc2c(Nc3ccn(-c4ccccn4)n3)cc(O[C@H]3CC[C@@H](NC[C@@H](O)C(F)(F)F)CC3)cc21 ... 660
Cn1cnc2c(Nc3cc[nH]n3)cc(O[C@H]3CC[C@@](C)(NC[C@@H](O)C(F)(F)F)CC3)cc21 ... 1170
COCCCn1nc(Nc2cc(O[C@H]3CC[C@@H](NC[C@@H](O)C(F)(F)F)CC3)cc3c2ncn3C)cc1C ... 3720

Would you kindly look at the next entry?
# query: IC50 | item Cc1cc(Nc2cc(O[C@H]3CC[C@@H](NC[C@@H](O)C(F)F)CC3)cc3c2ncn3C)nn1C | system: JAK3 (Homo sapiens (Human))
2140

====

- study.system: UniProt:P23458
- experiment.description: JAK LanthaScreen Kinase Assay (TR-FRET), JAK1 in vitro enzyme assay
- Assay type: biochemical
- conditions: 20.0 μM ATP
IC50 by entry:
# unit: nM | format: bare number

Example entries and their recorded answers appear below.
COCCCn1nc(Nc2cc(O[C@H]3CC[C@@H](NC[C@@H](O)C(F)(F)F)CC3)cc3c2ncn3C)cc1C [Example 1] ... 3.25
Cn1cnc2c(Nc3cc[nH]n3)cc(O[C@H]3CC[C@@](C)(NC[C@@H](O)C(F)(F)F)CC3)cc21 [Example 8] ... 1.91
CCn1nc(Nc2cc(OC3CCC(NC[C@@H](O)C(F)(F)F)CC3)cc3c2ncn3C)cc1C (stereo in doubt) [Example 7] ... 5.43
Cc1cc(Nc2cc(O[C@H]3CC[C@@H](NC[C@@H](O)C(F)F)CC3)cc3c2ncn3C)nn1C [Example 9] ... 5.35
COc1cc(Nc2cc(O[C@H]3CC[C@@H](NC[C@@H](O)C(F)(F)F)CC3)cc3c2ncn3C)nn1C [Example 6] ... 5.25

The record that follows has no IC50 shown yet.
Can you share its IC50? I mean this compound: Cn1cnc2c(Nc3ccn(-c4ccccn4)n3)cc(O[C@H]3CC[C@@H](NC[C@@H](O)C(F)(F)F)CC3)cc21 [Example 10]
1.49

====

- study.system: JAK1 (Homo sapiens (Human), UniProt P23458)
- Sequence (P23458 whole entry): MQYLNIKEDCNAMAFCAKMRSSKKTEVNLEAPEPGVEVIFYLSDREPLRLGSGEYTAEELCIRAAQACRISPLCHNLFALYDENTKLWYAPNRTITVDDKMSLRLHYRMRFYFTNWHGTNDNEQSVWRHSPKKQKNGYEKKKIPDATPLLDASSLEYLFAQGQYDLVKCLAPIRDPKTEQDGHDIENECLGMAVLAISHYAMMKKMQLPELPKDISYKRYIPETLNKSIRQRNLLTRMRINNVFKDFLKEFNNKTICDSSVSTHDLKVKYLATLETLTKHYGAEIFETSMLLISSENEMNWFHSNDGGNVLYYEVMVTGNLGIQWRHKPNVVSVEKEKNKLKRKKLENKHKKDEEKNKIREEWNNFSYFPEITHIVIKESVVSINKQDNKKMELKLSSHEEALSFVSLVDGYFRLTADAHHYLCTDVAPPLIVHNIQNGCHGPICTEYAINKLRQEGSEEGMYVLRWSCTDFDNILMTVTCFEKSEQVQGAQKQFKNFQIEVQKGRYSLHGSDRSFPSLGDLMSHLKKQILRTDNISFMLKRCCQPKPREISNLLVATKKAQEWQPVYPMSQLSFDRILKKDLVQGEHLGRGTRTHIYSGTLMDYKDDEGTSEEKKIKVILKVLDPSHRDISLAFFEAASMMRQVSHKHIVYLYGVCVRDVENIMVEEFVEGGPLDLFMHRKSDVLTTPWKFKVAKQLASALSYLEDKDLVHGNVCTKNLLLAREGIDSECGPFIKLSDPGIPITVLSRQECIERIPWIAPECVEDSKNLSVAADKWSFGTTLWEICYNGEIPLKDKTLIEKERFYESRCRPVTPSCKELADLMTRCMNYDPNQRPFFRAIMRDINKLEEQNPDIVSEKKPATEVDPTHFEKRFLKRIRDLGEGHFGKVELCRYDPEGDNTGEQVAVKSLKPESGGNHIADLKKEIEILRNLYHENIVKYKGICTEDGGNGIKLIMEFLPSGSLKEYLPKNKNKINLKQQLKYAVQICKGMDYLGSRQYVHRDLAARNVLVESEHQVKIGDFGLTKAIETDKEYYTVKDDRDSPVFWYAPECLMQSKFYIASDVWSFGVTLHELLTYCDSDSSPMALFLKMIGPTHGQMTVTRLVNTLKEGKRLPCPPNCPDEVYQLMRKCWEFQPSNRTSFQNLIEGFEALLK
- experiment.description: Human whole blood assay: pSTAT3 (JAK1) in lymphocytes, IL6 stimulated
- Assay type: cell-based
- conditions: IL6, pSTAT3 in CD4+ lymphocytes
Field: label. Allowed values: satisfied (IC50 < 4 µM) or not satisfied (IC50 >= 4 µM).

Consider the following illustrative entries.
Cn1cnc2c(Nc3cc[nH]n3)cc(O[C@H]3CC[C@@](C)(NC[C@@H](O)C(F)(F)F)CC3)cc21 ... satisfied
CCn1nc(Nc2cc(OC3CCC(NC[C@@H](O)C(F)(F)F)CC3)cc3c2ncn3C)cc1C (stereo in doubt) ... not satisfied
Cn1cnc2c(Nc3ccn(-c4ccccn4)n3)cc(O[C@H]3CC[C@@H](NC[C@@H](O)C(F)(F)F)CC3)cc21 ... satisfied
COc1cc(Nc2cc(O[C@H]3CC[C@@H](NC[C@@H](O)C(F)(F)F)CC3)cc3c2ncn3C)nn1C ... satisfied

Now consider a different molecule.
Field: below-cutoff. Rule: recorded IC50 strictly less than 4 µM. Subject: Cc1cc(Nc2cc(O[C@H]3CC[C@@H](NC[C@@H](O)C(F)F)CC3)cc3c2ncn3C)nn1C
not satisfied

Value source: patent US10323019B2
